target: HMG-CoA reductase (Homo sapiens)
Construct: purchased Sigma-Aldrich CS1090
Sequence (P04035 426-888 limits assumed): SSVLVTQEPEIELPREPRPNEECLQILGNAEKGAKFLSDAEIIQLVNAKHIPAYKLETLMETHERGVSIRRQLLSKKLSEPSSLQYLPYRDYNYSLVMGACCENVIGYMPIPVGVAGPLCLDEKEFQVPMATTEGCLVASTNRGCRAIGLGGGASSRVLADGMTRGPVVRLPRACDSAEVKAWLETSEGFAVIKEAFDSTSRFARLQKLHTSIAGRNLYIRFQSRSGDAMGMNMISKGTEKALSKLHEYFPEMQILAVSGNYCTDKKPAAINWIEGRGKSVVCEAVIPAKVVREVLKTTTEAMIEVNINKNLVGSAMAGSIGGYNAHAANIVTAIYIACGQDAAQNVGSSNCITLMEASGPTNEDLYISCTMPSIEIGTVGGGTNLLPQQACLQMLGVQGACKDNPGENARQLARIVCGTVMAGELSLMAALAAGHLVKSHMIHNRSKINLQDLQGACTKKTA
measurementDescription: In vitro HMG-CoA reductase inhibition (HMG-CoA Reductase Assay Kit, Sigma-Aldrich CS1090)
Assay type: biochemical
runParameters: concentrations 2.5, 5.0, 10.0 and 20 μM, triplicate
resultType: pIC50
pIC50 field: float, defined as -log10 of concentration (mol/L).

Entry COc1ccc(C(=O)Nc2ccc(NC(=O)c3ccc(OC)c(OC)c3)c(C(=O)O)c2)cc1OC : reported pIC50 = ? 5.05

Reference for the values: paper PMC9784827
